Here, each record is paired with measured IC50 data.
Tested on: ID8-vegf
measurement notes: MTT cytotoxicity assay, ID8-vegf
experimental context: read-out: cytotoxicity IC50 ID8-vegf, Tables 3A/4B/4C
assay metric: IC50 (nM)

compound	censoring sign	endpoint value
N[C@@H](Cc1ccccc1)C(=O)N1C/C(=C\c2ccc([N+](=O)[O-])cc2)C(=O)/C(=C/c2ccc([N+](=O)[O-])cc2)C1 [RA183, reference compound]	=	198
N[C@@H](Cc1ccccc1)C(=O)N1C/C(=C\c2ccc(Cl)c(Cl)c2)C(=O)/C(=C/c2ccc(Cl)c(Cl)c2)C1 [RA190, reference compound]	=	211
CC1/C(=C\c2ccc([N+](=O)[O-])cc2)C(=O)/C(=C/c2ccc([N+](=O)[O-])cc2)CN1C(=O)[C@H](Cc1ccccc1)NC(=O)CCl (stereo partly shown) [RA414]	<	40
CC1/C(=C\c2ccccc2F)C(=O)/C(=C/c2ccccc2F)CN1C(=O)[C@@H](N)Cc1ccccc1 (mixture of isomers) [RA467]	=	167
CC1/C(=C\c2ccc(F)cc2)C(=O)/C(=C/c2ccc(F)cc2)CN1C(=O)[C@@H](N)Cc1ccccc1 (mixture of isomers) [RA462]	=	123
CC(C)C[C@H](NC(=O)[C@H](Cc1ccccc1)NC(=O)c1cnccn1)B(O)O [Bortezomib, bortezomib, reference compound]	=	1.5
CC1/C(=C\c2ccc([N+](=O)[O-])cc2)C(=O)/C(=C/c2ccc([N+](=O)[O-])cc2)CN1C(=O)[C@@H](N)Cc1ccccc1 (mixture of isomers) [RA413]	=	192

* * *

Test system: TOV21G
measurement notes: MTT cytotoxicity assay, TOV21G
experimental context: read-out: cytotoxicity IC50 TOV21G; Tables 3A/4B/4C; MTT assay
Here, each record is paired with measured IC50 data.

compound	target under test	IC50 [nM]
C[C@H]1/C(=C\c2ccc([N+](=O)[O-])cc2)C(=O)/C(=C/c2ccc([N+](=O)[O-])cc2)CN1C(=O)[C@@H](N)Cc1ccccc1	TOV21G	3.6
N[C@@H](Cc1ccccc1)C(=O)N1C/C(=C\c2ccc(Cl)c(Cl)c2)C(=O)/C(=C/c2ccc(Cl)c(Cl)c2)C1 [RA190, reference compound]	TOV21G	148
CC1/C(=C\c2ccc([N+](=O)[O-])cc2)C(=O)/C(=C/c2ccc([N+](=O)[O-])cc2)CN1C(=O)[C@@H](N)Cc1ccccc1 (mixture of isomers) [RA413]	TOV21G	42
N[C@@H](Cc1ccccc1)C(=O)N1C/C(=C\c2ccc([N+](=O)[O-])cc2)C(=O)/C(=C/c2ccc([N+](=O)[O-])cc2)C1 [RA183, reference compound]	TOV21G	53
CC1/C(=C\c2ccc([N+](=O)[O-])cc2)C(=O)/C(=C/c2ccc([N+](=O)[O-])cc2)CN1C(=O)[C@H](Cc1ccccc1)NC(=O)CCl (stereo partly drawn) [RA414]	TOV21G	1.1
C[C@@H]1/C(=C\c2ccc([N+](=O)[O-])cc2)C(=O)/C(=C/c2ccc([N+](=O)[O-])cc2)CN1C(=O)[C@@H](N)Cc1ccccc1 [RA413R]	TOV21G	20

* * *

Test system: HCT116 ARID1A^-/-
measurement notes: MTT cytotoxicity assay, HCT116 ARID1A knockout
Assay type: cell-based, human
experimental context: Homo sapiens, HCT-116, 48 h, read-out: IC50 HCT116 ARID1A^-/-
pIC50: −log10 of the molar value.
assay metric: pIC50

compound	endpoint value
N[C@@H](Cc1ccccc1)C(=O)N1C/C(=C\c2ccc([N+](=O)[O-])cc2)C(=O)/C(=C/c2ccc([N+](=O)[O-])cc2)C1 [RA183, reference compound]	6.81
O=C(CCl)N[C@@H](Cc1ccccc1)C(=O)N1C/C(=C\c2ccc([N+](=O)[O-])cc2)C(=O)/C(=C/c2ccc([N+](=O)[O-])cc2)C1 [RA375]	7.70
